test: Solubility test in low-polarity solvents (saturated solution, λmax, solubility, εC); type: physicochemical; conditions: Isopar M solution
property: λmax (absorption-maximum wavelength) (nm)

* CCCCC(CC)CNc1ccc(NCC(CC)CCCC)c2c1C(=O)c1ccccc1C2=O (stereo not shown) [Comparative dye 2, reference compound] | 650
* CCCCC(CC)CN(CC(CC)CCCC)c1ccc(/N=N/c2sc(C(=O)OCC)c(C)c2C(=O)OCC)c(NC(=O)CC)c1 (stereo not shown) | 536
* CCCCC(CC)CN(CC(CC)CCCC)c1ccc(/N=N/c2snc(CC)c2C#N)c(C)c1 (stereo not shown) | 530
* CCCCC(CC)CN(CC(CC)CCCC)c1ccc(/N=N/c2snc(C)c2C#N)c(NC(=O)CC)c1 (stereo not shown) | 544
* CCCCC(CC)CN(CC(CC)CCCC)c1ccc(N=Nc2snc(CC)c2C#N)c(NC(C)=O)c1 (stereo not shown) | 542
* CCCCC(CC)CN(CC(CC)CCCC)c1ccc(N=Nc2snc(C)c2C#N)c(NC(C)=O)c1 (stereo not shown) | 544
* CCCCC(CC)CN(CC(CC)CCCC)c1ccc(/N=N/c2snc(C)c2C#N)c(CC)c1 (stereo not shown) | 534
